tested on: cocklebur; test: Test C pre-/postemergence herbicide test; type: in vivo, Xanthium strumarium; details: Preemergence, 500 g ai/ha; scale 0 to 100, 0 no effect, 100 complete control
Some compounds, each annotated with its measured Cocklebur plant response rating.

Solved entries (count: 5):
1) CCN(CC)C(=O)c1cccc(NC(=O)c2cc(C(C)(C)C)nn2C)n1; 20
2) CCn1nc(C(C)(C)C)cc1C(=O)Nc1cc(C(=O)N(C)OC)ccc1F; 0
3) CCn1nc(C(C)(C)C)cc1C(=O)Nc1ccc(OC)c(OC)c1; 0
4) CCNC(=O)c1ccc(F)c(NC(=O)c2cn(C(C)(C)C)nc2CC)c1; 100
5) CCN1CCc2c(NC(=O)c3cc(C(C)(C)C)nn3CC)cccc2C1=O; 0

Can you look up the measured Cocklebur plant response rating of C=CCNC(=O)c1cccc(NC(=O)c2cc(C(C)(C)C)nn2C)n1 for me?
0

Quick one: Cocklebur plant response rating of CCCCOc1cccc(NC(=O)c2cc(C(C)(C)C)nn2CC)c1 ?
0

Consider the compound CCn1nc(C(C)(C)C)cc1C(=O)Nc1cccc(C(=O)NCC(C)C)c1 and give its measured Cocklebur plant response rating.
0

Which Cocklebur plant response rating value is on record for CCN(CC)C(=O)c1cccc(NC(=O)c2sc(C(C)(C)C)nc2C)c1 ?
0

====

test system: johnsongrass; assay: Test C pre-/postemergence herbicide test; type: in vivo, Sorghum halepense; conditions: Preemergence, 500 g ai/ha; scale 0 to 100, 0 no effect, 100 complete control
A collection of compounds and their measured Johnsongrass plant response rating

Would you please look over these solved cases?
1. CCn1nc(C(C)(C)C)cc1C(=O)Nc1cccc(C(=O)NCC(C)C)c1; 60
2. CCN1CCc2c(NC(=O)c3cc(C(C)(C)C)nn3CC)cccc2C1=O; 100
3. CCN(CC)C(=O)c1ccnc(NC(=O)c2cc(C(C)(C)C)nn2CC)c1; 85

Please examine the following record next.
Please report the recorded Johnsongrass plant response rating for CCn1nc(C(C)(C)C)cc1C(=O)Nc1cc(C(=O)N(C)C)ccn1 .
100

====

tested on: large crabgrass; assay: Test B pre-/postemergence herbicide test; format: in vivo, Digitaria sanguinalis; conditions: postemergence, 125 g ai/ha; scale 0 to 100
endpoint_name: Crabgrass, Large plant response rating
# output: bare number, no unit

1. C=CCN(CC=C)C(=O)c1cccc(NC(=O)c2nn(C(C)(C)C)nc2CC)c1; 20
2. CCN(C(C)=O)C(=O)c1ccc(F)c(NC(=O)c2cc(C(C)(C)C)nn2CC)c1; 10

Please look up its Crabgrass, Large plant response rating: Cc1nn(C(C)(C)C)nc1C(=O)Nc1cccc(C(=O)N(C)C)n1
0

Which Crabgrass, Large plant response rating value belongs to Cc1nn(C(C)(C)C)nc1C(=O)Nc1cccc(C(=S)N(C)C)c1 ?
30

I am curious: what Crabgrass, Large plant response rating value has been reported for CCn1nc(C(C)(C)C)cc1C(=O)Nc1cccc(OS(=O)(=O)CC)c1 ?
30

Look up Crabgrass, Large plant response rating: CCc1nn(C(C)C)nc1C(=O)Nc1cccc(C(=S)N(C)C)c1
0

Entry CCNC(=O)c1cccc(NC(=O)c2nn(C(C)(C)C)nc2C)n1 has what Crabgrass, Large plant response rating?
0

====

system: goosegrass; test: Test C pre-/postemergence herbicide test; type: in vivo, Eleusine indica; details: 62 g ai/ha; preemergence; scale 0 to 100
endpoint_name: Plant response rating, Goosegrass

1) CCn1nc(C(C)(C)C)cc1C(=O)Nc1cc(C(=O)N(C)OC)ccc1F [Compound 244]; 70
2) C=CCNC(=O)c1cccc(NC(=O)c2nn(C(C)C)nc2CC)c1 [Compound 382]; 75
3) CCn1nc(C2(C)CC2)cc1C(=O)Nc1cc(C(=O)N2CC=CC2)ccc1F [Compound 301]; 50

Now for another entry.
# Plant response rating, Goosegrass lookup, item CCNC(=O)c1ccc(F)c(NC(=O)c2cc(C3(C)CC3)nn2CC)c1 [Compound 300]
85
